MEASURED ON: Enterococcus faecalis thymidylate synthase (EfTS) (Enterococcus faecalis, UniProt Q834R3)
Sequence (Q834R3 1-315): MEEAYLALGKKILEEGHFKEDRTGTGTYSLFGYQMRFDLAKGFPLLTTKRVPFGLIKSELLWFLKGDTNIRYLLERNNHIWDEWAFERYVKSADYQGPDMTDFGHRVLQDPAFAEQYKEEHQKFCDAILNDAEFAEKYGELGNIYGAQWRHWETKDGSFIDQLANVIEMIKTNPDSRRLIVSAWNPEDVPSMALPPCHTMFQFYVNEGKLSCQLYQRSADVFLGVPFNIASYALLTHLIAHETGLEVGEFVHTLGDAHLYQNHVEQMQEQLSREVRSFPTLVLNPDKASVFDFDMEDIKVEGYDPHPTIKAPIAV
MEASURED ATTRIBUTE: Ki (nM)
Answers are plain numbers, in nM.

Query: // query Ki value for entry O=c1[nH]c(=O)n([C@H]2C[C@H](O)[C@@H](COP(=O)(O)O)O2)cc1F
Response: 74

meta.source: paper PMC6479881
